TEST NAME: Viability qHTS for spleen associated tyrosine kinase inhibitor (SYKi) naive MV4-11 cells (AID 1963823); also: nearly all actives have a fitted effect of over 40% in size
TEST SETTINGS: MV4-11 AML viability, CellTiter-Glo luminescence, 72 h; series mostly up to 45 µM
Inconclusive results are not listed. Calls of active or inactive are those of the source. Calls follow the shape of the dose curve; as a rule, active = well fitted cell-killing curve with a large enough effect; inconclusive = small, poorly fitted or top-dose-only effect, or effect the other way; inactive = no such curve, though single readings can be large or run the other way.
Possible outcomes: active, inactive

[[record]]
compound = "COC(=O)Nc1cc(Nc2cc(NC3CC3)c3ncc(C#N)n3n2)c(Cl)c(N2CCN(C)CC2)c1"
group_label = "active"

[[record]]
compound = "C=C1C(=O)O[C@@H]2C[C@@]3(C)CCC[C@H](C)C3=C[C@H]12"
group_label = "active"

[[record]]
compound = "COc1cc(C(C)=O)ccc1O[C@@H]1O[C@H](CO)[C@@H](O)[C@H](O)[C@H]1O"
group_label = "inactive"

[[record]]
compound = "Cc1oc(-c2ccccc2)nc1CCC(=O)c1ccc(CC2SC(=O)NC2=O)cc1 (stereo not given)"
group_label = "inactive"

[[record]]
compound = "COc1ccccc1C(=O)Nc1cc2c(cc1N1CCNC[C@H]1C)n(C)c(=O)n2C"
group_label = "active"


====

TEST NAME: Quantitative highthroughput screen to assess conditional lethalithy of NOMO1 cells grown in Human Plasma-Like Medium with dialyzed fetal bovine serum (HPLM+ds) (AID 1963878); also: nearly all actives have a fitted effect of over 35% in size;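 as to viability: 100% = DMSO wells and 0% = empty wells on each plate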
TEST SETTINGS: NOMO1 AML cells in HPLM+ds, CellTiter-Glo viability, 48 h; series mostly up to 45.8 µM
Inconclusive results are not listed. The source made the active and inactive calls. The call rests on the fitted dose curve; in most records, active means well fitted cell-killing curve with a large enough effect; inconclusive means small, poorly fitted or top-dose-only effect, or effect the other way; inactive means no such curve, though single readings can be large or run the other way.
Classes used: active, inactive

[[record]]
molecule = "CC#C[C@]1(O)CC[C@H]2[C@@H]3CCC4=CC(=O)CCC4=C3[C@@H](c3ccc(N(C)C)cc3)C[C@@]21C"
group_label = "active"

[[record]]
molecule = "Nc1ccn([C@@H]2O[C@H](CO)[C@@H](O)C2O)c(=O)n1 (stereo not given in full)"
group_label = "active"

[[record]]
molecule = "O=C(NCCS(=O)(=O)c1ccc(C(F)(F)F)cn1)c1ccc(Cl)cc1"
group_label = "inactive"

[[record]]
molecule = "O=C1c2cccc(O)c2C(=O)c2c(O)cc(CO)cc21"
group_label = "inactive"

[[record]]
molecule = "CN(C)c1cccc(-c2c3c(=O)n(-c4ccccc4Cl)[nH]c3cc(=O)n2C)c1"
group_label = "active"

[[record]]
molecule = "COc1ccc(-c2cc(=O)c3c(O)cc(O)cc3o2)cc1O"
group_label = "inactive"

[[record]]
molecule = "CC[C@@H]([C@H](C)O)n1ncn(-c2ccc(N3CCN(c4ccc(OCC5CO[C@@](Cn6cncn6)(c6ccc(F)cc6F)C5)cc4)CC3)cc2)c1=O (stereo not given in full)"
group_label = "inactive"

[[record]]
molecule = "N[C@@H](CC(=O)N1CCn2c(nnc2C(F)(F)F)C1)Cc1cc(F)c(F)cc1F"
group_label = "inactive"

[[record]]
molecule = "CC(C)(CO)[C@@H](O)C(=O)NCCC(=O)O"
group_label = "inactive"

[[record]]
molecule = "Cn1cc(-c2cnn3c(N)c(Br)c([C@H]4CCCNC4)nc23)cn1"
group_label = "active"

[[record]]
molecule = "CC(C)OC(=O)C1=CN(C(=O)c2ccc(F)c(F)c2)CC(C)(C)c2c1[nH]c1ccccc21"
group_label = "inactive"

[[record]]
molecule = "Cc1ccc(NC(=O)c2cccc(N(C)C)c2)cc1NC(=O)c1ccc(O)cc1"
group_label = "inactive"

[[record]]
molecule = "O=C(Nc1nc2cccc(-c3ccc(CN4CCS(=O)(=O)CC4)cc3)n2n1)C1CC1"
group_label = "active"

[[record]]
molecule = "COc1ccccc1OCCNCC(O)COc1cccc2[nH]c3ccccc3c12 (stereo not given)"
group_label = "inactive"

[[record]]
molecule = "Cc1nc2c([nH]1)CCN(C(=O)c1ccc(NC(=O)c3ccccc3-c3ccccc3)cc1)c1ccccc1-2"
group_label = "inactive"

[[record]]
molecule = "CC(C)c1cc(-c2n[nH]c(=O)n2-c2ccc3c(ccn3C)c2)c(O)cc1O"
group_label = "active"

[[record]]
molecule = "O=C(Nc1ncc(SCCN2CCCC2)s1)[C@]1(c2ccc(S(=O)(=O)C3CC3)cc2)C[C@@H]1C1CCCCC1"
group_label = "active"

[[record]]
molecule = "O=C(NC1CCNCC1)c1[nH]ncc1NC(=O)c1c(Cl)cccc1Cl"
group_label = "active"

[[record]]
molecule = "Cc1nccn1CC1CCc2c(c3ccccc3n2C)C1=O (stereo not given)"
group_label = "inactive"

[[record]]
molecule = "Clc1ccc(C(Cn2ccnc2)OCc2ccsc2Cl)c(Cl)c1 (stereo not given)"
group_label = "inactive"


====

TEST NAME: Quantitative highthroughput screen to assess conditional lethalithy of NOMO1 cells grown in RPMI1640 with untreated serum (RPMI+s) (AID 1963876); also: nearly all actives have a fitted effect of over 35% in size;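 as to viability: 100% = DMSO wells and 0% = empty wells without cells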
TEST SETTINGS: NOMO1 AML cells in RPMI+serum, CellTiter-Glo viability, 48 h; series mostly up to 45.8 µM
Inconclusive results are not listed. Activity calls are given as the source filed them. Calls come from the whole dose curve; as a rule, active = well fitted cell-killing curve with a large enough effect; inconclusive = small, poorly fitted or top-dose-only effect; inactive = flat fitted curve, though single readings scatter.
Labels: yes (1) (active), no (0) (inactive)

[[record]]
smiles_structure = "CC(C)CC(=O)Nc1n[nH]c2c1CN(C(=O)C1CCN(C)CC1)C2(C)C"
group_label = "yes (1)"

[[record]]
smiles_structure = "CN(C)c1nc(N(C)C)nc(N(C)C)n1"
group_label = "no (0)"

[[record]]
smiles_structure = "CN(C)c1ccc(C(=C2C=CC(=[N+](C)C)C=C2)c2ccc(N(C)C)cc2)cc1"
group_label = "yes (1)"

[[record]]
smiles_structure = "CC=C1NC(=O)[C@H]2CSSCCC=C[C@H](CC(=O)N[C@H](C(C)C)C(=O)N2)OC(=O)[C@H](C(C)C)NC1=O"
group_label = "yes (1)"

[[record]]
smiles_structure = "OCCn1cc(-c2ccc3c(c2)CCC3=NO)c(-c2ccncc2)n1"
group_label = "no (0)"

[[record]]
smiles_structure = "Cc1ccn(-c2ccc(-c3ncco3)cc2)c(=O)c1-c1ccc2nc(N)ncc2c1"
group_label = "no (0)"

[[record]]
smiles_structure = "CC(=O)Nc1cccc(-n2c(=O)n(C3CC3)c(=O)c3c(Nc4ccc(I)cc4F)n(C)c(=O)c(C)c32)c1"
group_label = "yes (1)"

[[record]]
smiles_structure = "N#CC1(c2cccc(C(=O)Nc3cc(Oc4ccc5nc(NC(=O)C6CC6)sc5n4)ccc3F)c2Cl)CC1"
group_label = "yes (1)"

[[record]]
smiles_structure = "CCCCc1nc2cc(C=CC(=O)NO)ccc2n1CCN(CC)CC"
group_label = "yes (1)"


====

TEST NAME: Viability qHTS for spleen associated tyrosine kinase inhibitor (SYKi) naive MV4-11 cells (AID 1963823); also: nearly all actives have a fitted effect of over 40% in size
TEST SETTINGS: MV4-11 AML viability, CellTiter-Glo luminescence, 72 h; series mostly up to 45 µM
Records with an inconclusive call do not appear. Active and inactive are the calls of the source. Calls come from the whole dose curve; as a rule, active = well fitted cell-killing curve with a large enough effect; inconclusive = small, poorly fitted or top-dose-only effect, or effect the other way; inactive = no such curve, though single readings can be large or run the other way.
Outcomes: active, inactive

[[record]]
compound = "NC(N)=NC(N)=NCCc1ccccc1"
group_label = "active"

[[record]]
compound = "CC(=O)N1c2ccccc2C2(O)CC3C(=O)NC(CC(C)C)C(=O)N3C12 (stereo not given)"
group_label = "inactive"

[[record]]
compound = "CC[C@]1(O)CC2CN(CCc3c([nH]c4ccccc34)[C@@](C(=O)OC)(c3cc4c(cc3OC)N(C)[C@H]3[C@@](O)(C(=O)OC)[C@H](OC(C)=O)[C@]5(CC)C=CCN6CC[C@]43[C@@H]65)C2)C1 (stereo not given in full)"
group_label = "active"

[[record]]
compound = "Cc1ccc(C(C)C)c(O[C@@H]2O[C@H](CO)[C@@H](O)[C@H](O)[C@H]2O)c1"
group_label = "inactive"

[[record]]
compound = "CN(C)CC[C@@H](c1ccc(Br)cc1)c1ccccn1"
group_label = "inactive"

[[record]]
compound = "CC1=CCC2C(C)(CO)CCCC2(C)C1CC12OC1C(O)C(CO)=CC2O (stereo not given)"
group_label = "inactive"

[[record]]
compound = "O=C(c1ccc(F)cc1)C1CCN(CCn2c(=O)nc3n(c2=O)CCCC3)CC1"
group_label = "inactive"

[[record]]
compound = "CCCCCCC[N+](CC)(CC)CCCCc1ccc(Cl)cc1"
group_label = "active"

[[record]]
compound = "CC1CCC2(C(=O)OC3OC(CO)C(O)C(O)C3O)CCC3(C)C(=CCC4C5(C)CC(O)C(O)C(C)(C(=O)O)C5CCC43C)C2C1(C)O (stereo not given)"
group_label = "inactive"

[[record]]
compound = "O=C(OCC(O)CO[C@@H]1O[C@H](C(=O)O)[C@@H](O)[C@H](O)[C@H]1O)c1ccccc1 (stereo not given in full)"
group_label = "inactive"


====

TEST NAME: Viability qHTS for spleen associated tyrosine kinase inhibitor (SYKi) naive MV4-11 cells (AID 1963823); also: nearly all actives have a fitted effect of over 40% in size; also: potency is read from the fitted curve at half-maximal effect
TEST SETTINGS: MV4-11 AML viability, CellTiter-Glo luminescence, 72 h; series mostly up to 45 µM
Results filed as inconclusive are left out. The source made the active and inactive calls. The call rests on the fitted dose curve; in most records, active means well fitted cell-killing curve with a large enough effect; inconclusive means small, poorly fitted or top-dose-only effect, or effect the other way; inactive means no such curve, though single readings can be large or run the other way.
EXPERIMENTAL ENDPOINT: Potency

[[record]]
molecule = "Clc1cccc(-c2nnnn2Cc2cccnc2)c1Cl"
experimental_endpoint = "Potency"
reading = "inactive"

[[record]]
molecule = "COC(=O)c1ccccc1O[C@@H]1O[C@H](CO)[C@@H](O)[C@H](O)[C@H]1O[C@@H]1O[C@@H](C)[C@H](O)[C@@H](O)[C@H]1O"
experimental_endpoint = "Potency"
reading = "inactive"

[[record]]
molecule = "CCC(=O)O[C@H]1C(C)(C)[C@H]([C@@H](O)C(=O)OC)[C@]2(C)C(=O)[C@@]1(O)[C@H]1O[C@]13C1CC(=O)O[C@@H](c4ccoc4)[C@]1(C)CCC32 (stereo not given in full)"
experimental_endpoint = "Potency"
reading = "inactive"

[[record]]
molecule = "CC(C)[C@@](O)(c1ccc2cc(OC(F)F)c(OC(F)F)cc2c1)c1cn[nH]n1"
experimental_endpoint = "Potency"
reading = "18.4 µM (active)"

[[record]]
molecule = "CN1C(C)(C)CCCC1(C)C"
experimental_endpoint = "Potency"
reading = "inactive"

